The measurements presented in this section are drawn from patent US20220002288A1.

Overview of recorded Vd for various compounds
# Method notes: Pharmacokinetics of the compounds in mice
# Assay type: in vivo, BALB/c mice
# Condition label: male, BALB/c, mouse, plasma, iv, 2 mg/kg, male BALB/c mice, single intravenous dose 2 mg/kg, plasma; read-out: VSS
Record the result as a number with its unit.

Answered cases to consult:
Compound	Vd
CC(CN)Nc1ccc(-c2ccc(OC[C@H](O/N=C(\C(=O)N[C@@H]3C(=O)N(OS(=O)(=O)[O-])C3(C)C)c3csc(N)n3)C(=O)O)cc2)c[n+]1C (stereo partly shown) [Compound A, reference compound]	0.4 L/kg
CC1(C)[C@H](NC(=O)/C(=N\O[C@@H](COc2ccc(C(=O)Nc3cn(CCCN)[n+](CC4CNC4)c3)cc2)C(=O)O)c2csc(N)n2)C(=O)N1OS(=O)(=O)[O-]	0.25 L/kg
C[n+]1cc(-c2ccc(OC[C@H](O/N=C(\C(=O)N[C@@H]3C(=O)N(OS(=O)(=O)[O-])C3(C)C)c3csc(N)n3)C(=O)O)cc2)ccc1NC(=O)[C@@H](N)CCCCN	0.73 L/kg

Proceed to the following item.
Form field: reported Vd of CC1(C)[C@H](NC(=O)/C(=N\O[C@@H](COc2ccc(-c3cn4[n+](c3)CC(OCCCN)C4)cc2)C(=O)O)c2csc(N)n2)C(=O)N1OS(=O)(=O)[O-] (stereo partly shown)
0.26 L/kg

* * *

Overview of recorded MIC for various compounds
# System: Acinetobacter baumannii
# Method notes: In vitro antibacterial activity, minimum inhibitory concentration (MIC)
# Assay type: cell-based
# Condition label: strain HDBAB_OXA_7
Please respond with the number in µg/mL and leave the unit unwritten.

Answered cases to consult:
Compound	Endpoint name	Units label	Observed
CC1(C)[C@H](NC(=O)/C(=N\O[C@@H](COc2ccc(C(=O)Nc3cn(CCCN)[n+](CC4CNC4)c3)cc2)C(=O)O)c2csc(N)n2)C(=O)N1OS(=O)(=O)[O-]	MIC	µg/mL	4
CC1(C)[C@H](NC(=O)/C(=N\O[C@@H](CCCOc2ccc(-c3cn(CCCN)[n+](CC4CNC4)c3)cc2)C(=O)O)c2csc(N)n2)C(=O)N1OS(=O)(=O)[O-]	MIC	µg/mL	8
CC1(C)[C@H](NC(=O)/C(=N\O[C@@H](COc2ccc(-c3ccc(NC(=O)[C@@H](N)CCCCN)nc3)cc2)C(=O)O)c2csc(N)n2)C(=O)N1OS(=O)(=O)O	MIC	µg/mL	16

Proceed to the following item.
Form field: reported MIC of CC(CN)Nc1ccc(-c2ccc(OC[C@H](O/N=C(\C(=O)N[C@@H]3C(=O)N(OS(=O)(=O)[O-])C3(C)C)c3csc(N)n3)C(=O)O)cc2)c[n+]1C (stereo partly shown) [Compound A, reference compound]
16

* * *

Overview of recorded MIC for various compounds
# System: Escherichia coli
# Method notes: In vitro antibacterial activity, minimum inhibitory concentration (MIC)
# Type: cell-based
# Condition label: strain CLB30048, read-out: MIC
# Procedure: Compounds: The compounds prepared in the above examples and comparative examples. All test compounds were dissolved and diluted with DMSO, and the final concentrations were prepared as 64, 32, 16, 8, 4, 2, 1, 0.5, 0.25, 0.125, 0.0625 μg/mL in the experiment. […]
Please respond with the number in µg/mL and leave the unit unwritten.

Compound	Assay system	MIC (µg/mL)
CC1(C)[C@H](NC(=O)/C(=N\O[C@@H](COc2ccc(-c3cn4[n+](c3)CC(OCCCN)C4)cc2)C(=O)O)c2csc(N)n2)C(=O)N1OS(=O)(=O)[O-] (stereo partly drawn)	Escherichia coli	4
CC1(C)[C@H](NC(=O)/C(=N\O[C@@H](COc2ccc(C(=O)Nc3cn(CCCN)[n+](CC4CNC4)c3)cc2)C(=O)O)c2csc(N)n2)C(=O)N1OS(=O)(=O)[O-]	Escherichia coli	2
C[n+]1cc(-c2ccc(OC[C@H](O/N=C(\C(=O)N[C@@H]3C(=O)N(OS(=O)(=O)[O-])C3(C)C)c3csc(N)n3)C(=O)O)cc2)ccc1NC(=O)[C@@H](N)CCN	Escherichia coli	2
C[n+]1cc(-c2ccc(OC[C@H](O/N=C(\C(=O)N[C@@H]3C(=O)N(OS(=O)(=O)[O-])C3(C)C)c3csc(N)n3)C(=O)O)cc2)ccc1NC(=O)[C@H](N)CCCCN	Escherichia coli	8
CC1(C)[C@H](NC(=O)/C(=N\O[C@@H](COc2ccc(-c3ccc(NC(=O)[C@@H](N)CCCCN)nc3)cc2)C(=O)O)c2csc(N)n2)C(=O)N1OS(=O)(=O)O	Escherichia coli	8
C[n+]1cc(-c2ccc(OC[C@H](O/N=C(\C(=O)N[C@@H]3C(=O)N(OS(=O)(=O)[O-])C3(C)C)c3csc(N)n3)C(=O)O)cc2)ccc1NC(=O)[C@@H](N)CCCCN	Escherichia coli	8

Form field: reported MIC of "C[n+]1cc(-c2ccc(OC[C@H](O/N=C(\C(=O)N[C@@H]3C(=O)N(OS(=O)(=O)[O-])C3(C)C)c3csc(N)n3)C(=O)O)cc2)ccc1NC(=O)[C@@H](N)CO"
32

Form field: reported MIC of "CC1(C)[C@H](NC(=O)/C(=N\O[C@@H](CCCOc2ccc(-c3cn(CCCN)[n+](CC4CNC4)c3)cc2)C(=O)O)c2csc(N)n2)C(=O)N1OS(=O)(=O)[O-]"
1

Form field: reported MIC of "CC1(C)[C@H](NC(=O)/C(=N\O[C@@H](COc2ccc(-c3ccc(NC(=O)[C@@H](N)CO)nc3)cc2)C(=O)O)c2csc(N)n2)C(=O)N1OS(=O)(=O)O"
64

Form field: reported MIC of "CC1(C)[C@H](NC(=O)/C(=N\O[C@@H](COc2ccc(-c3ccc4[nH]c(CN)nc4c3)cc2)C(=O)O)c2csc(N)n2)C(=O)N1OS(=O)(=O)O"
32

Form field: reported MIC of CC(CN)Nc1ccc(-c2ccc(OC[C@H](O/N=C(\C(=O)N[C@@H]3C(=O)N(OS(=O)(=O)[O-])C3(C)C)c3csc(N)n3)C(=O)O)cc2)c[n+]1C (stereo partly drawn) [Compound A, reference compound]
8
